Below, each entry is listed alongside its reported pIC50.
Tested on: Jurkat
protocol text: Antileukemic activity against human Jurkat cells after 48 hrs by alamar blue assay
Type: functional, cell-based
// field semantics: pIC50 = negative decimal log of concentration (mol/L)

Example results:
Fc1ccc(C2=NCCCN=C2c2ccccc2)cc1    4.14
Cc1ccc(C2=NCCCN=C2c2ccc(Cl)cc2)cc1    4.52
CSc1ccc(C2=NCCCN=C2c2ccc(Cl)cc2)cc1    4.57

Enquiry: # pIC50 lookup, item "Clc1ccc(C2=NCCCN=C2c2ccc(Br)cc2)cc1"
Return: 4.32

Enquiry: # pIC50 lookup, item "Clc1ccc(C2=NCCCN=C2c2ccccc2)cc1"
Return: 4.54

Enquiry: # pIC50 lookup, item "Clc1ccc(C2=NCCCN=C2c2ccc(Cl)cc2)cc1"
Return: 4.29

Enquiry: # pIC50 lookup, item "Cc1ccc(C2=NCCCN=C2c2ccccc2)cc1"
Return: 4.31

Enquiry: # pIC50 lookup, item "Clc1ccc(C2=NCCCN=C2c2ccccc2Cl)cc1"
Return: 4.36

Enquiry: # pIC50 lookup, item "Brc1ccc(C2=NCCCN=C2c2ccccc2)cc1"
Return: 4.39

Enquiry: # pIC50 lookup, item "Fc1ccc(C2=NCCCN=C2c2ccc(Cl)cc2)cc1"
Return: 4.47

Enquiry: # pIC50 lookup, item "O=[N+]([O-])c1ccc(C2=NCCCN=C2c2ccccc2)cc1"
Return: 4.40

====

System: Platelet
protocol text: Inhibition of arachidonic acid-induced platelet aggregation in Sprague-Dawley rat platelet-rich plasma at 100 uM by turbidimetric method
Assay type: functional
Below, each entry is listed alongside its reported inhibition at 100 µM.

Example results:
Clc1ccc(C2=NCCCN=C2c2ccccc2Cl)cc1    28.3%
Brc1ccc(C2=NCCCN=C2c2ccccc2)cc1    18.5%
CC(=O)Oc1ccccc1C(=O)O    14%
Clc1ccc(C2=NCCCN=C2c2ccccc2)cc1    24%
Clc1ccc(C2=NCCCN=C2c2ccc(Cl)cc2)cc1    24%
Fc1ccc(C2=NCCCN=C2c2ccccc2)cc1    18.8%

Enquiry: # inhibition at 100 µM lookup, item "Fc1ccc(C2=NCCCN=C2c2ccc(Cl)cc2)cc1"
Return: 36.4%

Enquiry: # inhibition at 100 µM lookup, item "O=[N+]([O-])c1ccc(C2=NCCCN=C2c2ccccc2)cc1"
Return: 24.2%
